- System: co-culture of keratinocytes and melanocytes
- procedure.text: Depigmenting activity test: inhibition of melanogenesis on a co-culture of keratinocytes and melanocytes
- Assay type: cell-based
- condition: co-culture of keratinocytes and melanocytes; read-out: IC50 (concentration for which a 50% inhibition of melanogenesis is observed)
- Description: This test corresponds to the one described in patent FR 2,734,825 filed by the Applicant, as well as in the article by R. Schmidt, P. Krien and M. Régnier, Anal. Biochem., 235 (2), 113-18, (1996). This test is thus carried out on a co-culture of keratinocytes and melanocytes. For each test compound, the IC50 value, which corresponds to the micromolar concentration (μM) for which a 50% inhibition of melanogenesis is observed, is determined. […]
pIC50: −log10 of the molar value.

compound | system.name | relation.operator | pIC50
CCCCCCCCCCCC(=O)Oc1ccc(NC(C)=O)cc1 [Lauroyl [4-(N-acetylamino)] phenol, Lauroyl [4-(N-acetylamino)]phenol] | co-culture of keratinocytes and melanocytes | < | 4.00
O=c1cc(CO)occ1O | co-culture of keratinocytes and melanocytes | = | 3.30
